The values you see were collected from the supplement of paper PMC10065799.

- systemTested: c-Src SH2;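 note: peptide library displayed on the E. coli surface as eCPX fusions, selected cells deep-sequenced, score is each peptide's frequency after selection divided by its frequency in the input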
- testDescription: SH2 binding enrichment of the phosphorylated peptide, bacterial display (enrichment ratio); higher = better substrate or ligand; peptides without Tyr show the background
valueType: SH2 binding enrichment

INSERT INTO measurements (residuesequence, systemtested, valuetype, resultnumber) VALUES
  ('RRVPVYGGRGA [QDPR_Y16_L14P]', 'c-Src SH2', 'SH2 binding enrichment', 0.527);

[A] DRLASYPEKVR [KRT13_Y118_L119P]
[B] GLCSFYETSKM [MAGED2_Y449_R446C_YF]
Challenge: Returns: the label, A or B , whose recorded SH2 binding enrichment is the lower number. Indicate your choice by writing its label.
Response given: A
